Target: human 5-HT2A receptor (Homo sapiens, UniProt P28223)
Sequence (P28223 whole entry): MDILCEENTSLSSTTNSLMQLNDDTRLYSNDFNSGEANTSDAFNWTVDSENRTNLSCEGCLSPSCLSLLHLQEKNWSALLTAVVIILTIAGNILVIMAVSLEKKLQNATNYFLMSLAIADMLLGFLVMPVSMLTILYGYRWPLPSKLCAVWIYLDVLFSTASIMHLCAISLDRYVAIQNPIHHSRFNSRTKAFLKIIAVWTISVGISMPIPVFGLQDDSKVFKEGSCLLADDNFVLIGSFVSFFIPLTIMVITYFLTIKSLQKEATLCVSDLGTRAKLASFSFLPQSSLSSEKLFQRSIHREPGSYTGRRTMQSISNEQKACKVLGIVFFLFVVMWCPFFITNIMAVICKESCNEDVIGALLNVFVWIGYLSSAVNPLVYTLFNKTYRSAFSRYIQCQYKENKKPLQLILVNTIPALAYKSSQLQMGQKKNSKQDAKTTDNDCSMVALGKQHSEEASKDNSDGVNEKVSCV
Assay: 5-HT2A receptor binding assay ([3H]-ketanserin radioligand)
Details: membranes from CHO K1 cells with human 5-HT2A receptor, [3H]-ketanserin 1 nM; read-out: 5-HT2A Ki
observedProperty: pKi
Bear in mind: pKi is minus log10 of a mol/L concentration; give just that figure.

Known results for compounds:
Fc1ccc(Cn2c(C(F)(F)F)cc3c(N4CCNCC4)cccc32)cc1F [Compound 25]; 9.15
CN1CCN(c2cccc3c2cc(C(F)(F)F)n3Cc2ccccc2)CC1 [Compound 26]; 9.04
CN1CCN(c2cccc3c2cc(C(F)(F)F)n3Cc2cccs2)CC1 [Compound 33]; 9.77
CN1CCN(c2cccc3c2nc(C(F)(F)F)n3Cc2ccccc2)CC1 [Compound 2]; 8.51
FC(F)(F)c1nc2c(N3CCNCC3)cccc2n1Cc1cccc(Cl)c1 [Compound 6]; 8.42
CN1CCN(c2cccc3c2cc(C(F)(F)F)n3Cc2ccc(Cl)c(F)c2)CC1 [Compound 14]; 9.41
CN1CCN(c2cccc3c2cc(C(F)(F)F)n3Cc2ccc(F)c(F)c2)CC1 [Compound 22]; 9.35
FC(F)(F)c1nc2c(N3CCNCC3)cccc2n1Cc1ccc(Cl)c(Cl)c1 [Compound 8]; 8.54

Prompt: Supply reported pKi belonging to this compound: FC(F)(F)c1nc2c(N3CCNCC3)cccc2n1Cc1ccccc1 [Compound 1]
Response: 8.38

Prompt: Supply reported pKi belonging to this compound: Fc1cc(Cn2c(C(F)(F)F)cc3c(N4CCNCC4)cccc32)ccc1Cl [Compound 16]
Response: 9.09

###

Biological target: human GPCR 5-HT2A (Homo sapiens)
Test: Cellular aequorin-based functional assay, 5-HT2A
Assay type: cell-based
Settings: antagonist mode, reference agonist α-methylserotonin 30 nM (EC80); read-out: 5-HT2A ANT Kb
observedProperty: Kb (µM)
The figure you give is taken to be in µM; do not add the unit.

Known results for compounds:
Fc1cc(Cn2c(C(F)(F)F)cc3c(N4CCNCC4)cccc32)ccc1Cl; 0.055
Fc1ccc(Cn2c(C(F)(F)F)cc3c(N4CCNCC4)cccc32)cc1F; 0.02

Prompt: Find the measured Kb of FC(F)(F)c1nc2c(N3CCNCC3)cccc2n1Cc1ccccc1 with human GPCR 5-HT2A (Homo sapiens) as test system.
Response: 0.018

Prompt: Find the measured Kb of CN1CCN(c2cccc3c2cc(C(F)(F)F)n3Cc2ccc(Cl)c(F)c2)CC1 with human GPCR 5-HT2A (Homo sapiens) as test system.
Response: 0.059

Prompt: Find the measured Kb of CN1CCN(c2cccc3c2cc(C(F)(F)F)n3Cc2ccco2)CC1 with human GPCR 5-HT2A (Homo sapiens) as test system.
Response: 0.0043

###

Target: human GPCR 5-HT2A (Homo sapiens)
Assay: Cellular aequorin-based functional assay, 5-HT2A
Type: cell-based
Conditions: antagonist mode, reference agonist α-methylserotonin 30 nM (EC80); read-out: 5-HT2A ANT Kb
observedProperty: Kb (nM)
The figure you give is taken to be in nM; do not add the unit.

Known results for compounds:
CN1CCN(c2cccc3c2cc(C(F)(F)F)n3Cc2cccc(Cl)c2)CC1; 56
CN1CCN(c2cccc3c2cc(C(F)(F)F)n3Cc2cccs2)CC1; 9.7
CN1CCN(c2cccc3c2cc(C(F)(F)F)n3Cc2cccc(F)c2)CC1; 28
COc1cccc(Cn2c(C(F)(F)F)cc3c(N4CCNCC4)cccc32)c1; 28
CN1CCN(c2cccc3c2cc(C(F)(F)F)n3Cc2ccsc2)CC1; 11
Fc1cccc(Cn2c(C(F)(F)F)nc3c(N4CCNCC4)cccc32)c1; 22

Prompt: Supply reported Kb belonging to this compound: CN1CCN(c2cccc3c2cc(C(F)(F)F)n3Cc2ccc(F)c(F)c2)CC1
Response: 26

###

Reported values: pKi for 5-HT6 receptors (Homo sapiens), one per item.
Bear in mind: pKi is minus log10 of a mol/L concentration; give just that figure.

Known results for compounds:
CN1CCN(c2cccc3c2nc(C(F)(F)F)n3Cc2ccccc2)CC1; 8.66
FC(F)(F)c1nc2c(N3CCNCC3)cccc2n1Cc1ccc(Cl)c(Cl)c1; 8.70
Fc1cc(Cn2c(C(F)(F)F)cc3c(N4CCNCC4)cccc32)ccc1Cl; 9.21
CN1CCN(c2cccc3c2cc(C(F)(F)F)n3Cc2ccccc2)CC1; 10.06
COc1cccc(Cn2c(C(F)(F)F)cc3c(N4CCN(C)CC4)cccc32)c1; 9.57
Cc1ccc(Cn2c(C(F)(F)F)cc3c(N4CCNCC4)cccc32)o1; 8.40
CN1CCN(c2cccc3c2cc(C(F)(F)F)n3Cc2ccco2)CC1; 9.74
FC(F)(F)c1cc2c(N3CCNCC3)cccc2n1Cc1cccs1; 10.15

Prompt: Supply reported pKi belonging to this compound: CN1CCN(c2cccc3c2cc(C(F)(F)F)n3Cc2ccc(Cl)c(F)c2)CC1
Response: 9.19

Prompt: Supply reported pKi belonging to this compound: Fc1cccc(Cn2c(C(F)(F)F)cc3c(N4CCNCC4)cccc32)c1
Response: 9.46

Prompt: Supply reported pKi belonging to this compound: CN1CCN(c2cccc3c2cc(C(F)(F)F)n3Cc2cccs2)CC1
Response: 10.16

Prompt: Supply reported pKi belonging to this compound: Fc1ccc(Cn2c(C(F)(F)F)cc3c(N4CCNCC4)cccc32)cc1F
Response: 9.43

Prompt: Supply reported pKi belonging to this compound: Cc1ccc(Cn2c(C(F)(F)F)cc3c(N4CCNCC4)cccc32)s1
Response: 9.96

Prompt: Supply reported pKi belonging to this compound: FC(F)(F)c1cc2c(N3CCNCC3)cccc2n1Cc1ccco1
Response: 9.21

Prompt: Supply reported pKi belonging to this compound: CN1CCN(c2cccc3c2cc(C(F)(F)F)n3Cc2ccc(Cl)c(Cl)c2)CC1
Response: 9.01

Prompt: Supply reported pKi belonging to this compound: FC(F)(F)c1cc2c(N3CCNCC3)cccc2n1Cc1ccccc1
Response: 9.54

Prompt: Supply reported pKi belonging to this compound: FC(F)(F)c1cc2c(N3CCNCC3)cccc2n1Cc1ccsc1
Response: 9.96

Prompt: Supply reported pKi belonging to this compound: CN1CCN(c2cccc3c2cc(C(F)(F)F)n3Cc2cccc(F)c2)CC1
Response: 10.04

Prompt: Supply reported pKi belonging to this compound: FC(F)(F)c1nc2c(N3CCNCC3)cccc2n1Cc1cccc(Cl)c1
Response: 8.77

Prompt: Supply reported pKi belonging to this compound: Fc1cccc(Cn2c(C(F)(F)F)nc3c(N4CCNCC4)cccc32)c1
Response: 8.80

Prompt: Supply reported pKi belonging to this compound: FC(F)(F)c1nc2c(N3CCNCC3)cccc2n1Cc1ccccc1
Response: 8.89

Prompt: Supply reported pKi belonging to this compound: CN1CCN(c2cccc3c2cc(C(F)(F)F)n3Cc2ccsc2)CC1
Response: 10.21
